- Test system: kynurenine production in HeLa cells
- Assay method text: Inhibition of kynurenine production in HeLa cells
- Type: cell-based, human
- Protocol conditions: Homo sapiens, HeLa, 48 h, HeLa cells, human IFN-γ 50 ng/mL, kynurenine read at 480 nm, read-out: IC50
Measurement kind: pIC50
Note on units: pIC50 is unitless, being -log10 of a concentration expressed in mol/L.

Consider the following illustrative entries.
* CC(C)CN(CC(C)C)c1ccc(SC(C)(C)C(=O)O)cc1NC(=O)Nc1ccc(F)cc1F [Compound 37] | 7.70
* CC(C)CN(c1ccc(C2(C(=O)O)CCC2)cc1Nc1ccc(Cl)c(F)c1)C1CCOCC1 [Compound 101] | 9.70
* CC(C)CN(c1ccc(C2(C(=O)O)CCC2)cc1Nc1cc(Cl)cc(Cl)c1)C1CCOCC1 [Compound 103] | 7.70
* CC(C)CN(c1ccc(C2(C(=O)O)CCC2)cc1Nc1ccc(Cl)cn1)C1CCOCC1 [Compound 102] | 9.70
* CC(C)CN(c1ccc(SC(C)(C)C(=O)O)cc1NC(=O)Nc1ccc(F)cc1F)C1CCOCC1 [Compound 43] | 6.87

Ask | Can you share its pIC50? I mean this compound: CC(C)N(CC1CC1)c1ccc(C2(C(=O)O)CCC2)cc1Nc1ccc(Cl)cn1 [Compound 113]
Reply | 9.40

Ask | Can you share its pIC50? I mean this compound: CC(C)CN(CC(C)C)c1ccc(OC(C)(C)C(=O)O)cc1NC(=O)Nc1ccc(F)cc1F [Compound 32]
Reply | 9.10

###

Property: CLint scaled at 1 µM; scope: individual compounds
- Assay method text: Human hepatocyte clearance study
- Assay type: in vitro ADME
- Protocol conditions: human, pooled cryopreserved human hepatocytes (suspension); scaled up from in vitro t1/2, scaling factor 2544.3; read-out: Human Scale-up Clint
All answers are understood in mL/min/kg, so give the number only.

* CC(C)CN(CC(C)C)c1ccc(C2(C(=O)O)CCCC2)cc1NC(=O)Nc1ccc(F)cc1F | 10
* CCN(c1ncc(C2(C(=O)O)CCC2)cc1Nc1ccc(Cl)cn1)C1CCOCC1 | 3.7
* CC(C)CN(CC(C)C)c1ncc(C2(C(=O)O)CCC2)cc1Nc1ccc(C#N)cn1 | 18

Now for the compound whose CLint scaled at 1 µM we want.
Ask | Can you share its CLint scaled at 1 µM? I mean this compound: CCOc1ncc(Nc2cc(C3(C(=O)O)CCC3)ccc2N(CC(C)C)C2CCOCC2)cn1
Reply | 6.6

###

- Tested on: T cells and HeLa cells co-culture
- Assay method text: T cells and HeLa cells co-culture assay (IFN-gamma production)
- Assay type: cell-based, human
- Protocol conditions: Homo sapiens; CD3 T cells + HeLa cells, 72 hr, FIG. 4; read-out: EC50, production of IFN-gamma in the T cells and HeLa cells co-culture media
Measurement kind: pEC50
Note on units: pEC50 is unitless, being -log10 of a concentration expressed in mol/L.

Ask | Can you share its pEC50? I mean this molecule: CCN(c1ncc(C2(C(=O)O)CCC2)cc1Nc1ccc(Cl)cc1)C1CCOCC1
Reply | 8.04

###

- Tested on: kynurenine production in SKOV-3 cells
- Assay method text: Inhibition of kynurenine production in SKOV-3 cells
- Assay type: cell-based, human
- Protocol conditions: FIG. 1
Measurement kind: pIC50
Note on units: pIC50 is unitless, being -log10 of a concentration expressed in mol/L.

Ask | Can you share its pIC50? I mean this molecule: NS(=O)(=O)NCCNc1nonc1/C(=N/O)Nc1ccc(F)c(Br)c1 [INCB-24360, reference compound]
Reply | 7.99
